These data points were gathered from ChEMBL document CHEMBL1127256.

target-or-test-system: Human immunodeficiency virus type 1 protease (Human immunodeficiency virus 1)
test-method-notes: Percent inhibition of HIV-1 protease against substrate SQN-(pNO2)F-PIV (test II) at a concentration of 10 e-5M
Below, each entry is listed alongside its reported inhibition.
Value expressed in %; do not type the unit.

// worked examples, inhibition included
smiles-repr: CC(C)[C@H](NC(=O)OCc1ccccc1)C(=O)N[C@@H](Cc1ccccc1)CN(CCN(CC(=O)O)C[C@H](Cc1ccccc1)NC(=O)[C@H](NC(=O)OCc1ccccc1)C(C)C)CC(=O)O
unit-text: %
inhibition: 53
--
smiles-repr: CC(C)[C@H](NC(=O)OCc1ccccc1)C(=O)N[C@@H](Cc1ccccc1)CN(CCN(C[C@H](Cc1ccccc1)NC(=O)[C@H](NC(=O)OCc1ccccc1)C(C)C)C(=O)OC(C)(C)C)C(=O)OC(C)(C)C
unit-text: %
inhibition: 3

### Prompt Would you mind telling me what inhibition value was observed for CC(C)[C@H](NC(=O)OCc1ccccc1)C(=O)N[C@@H](Cc1ccccc1)CN(C)CCN(C)C[C@H](Cc1ccccc1)NC(=O)[C@H](NC(=O)OCc1ccccc1)C(C)C ?
### Response 3

### Prompt Likewise for CC(C)[C@H](NC(=O)OCc1ccccc1)C(=O)N[C@@H](Cc1ccccc1)CN(CCO)CCN(CCO)C[C@H](Cc1ccccc1)NC(=O)[C@H](NC(=O)OCc1ccccc1)C(C)C ?
### Response 30

### Prompt Likewise for CC(C)[C@H](NC(=O)OCc1ccccc1)C(=O)N[C@H](CNCCNC[C@H](Cc1ccccc1)NC(=O)[C@H](NC(=O)OCc1ccccc1)C(C)C)Cc1ccccc1 ?
### Response 3

* * *

target-or-test-system: Human immunodeficiency virus type 1 protease (Human immunodeficiency virus 1) (UniProt Q72874)
test-method-notes: Percent inhibition of HIV-1 protease against substrate HKARVL-(NO2)F-EAnLSNH2 (test III) at a concentration of 10 e-5M
Below, each entry is listed alongside its reported inhibition.
Value expressed in %; do not type the unit.

// worked examples, inhibition included
smiles-repr: CC(C)[C@H](NC(=O)OCc1ccccc1)C(=O)N[C@@H](Cc1ccccc1)CN(CCN(CC(=O)O)C[C@H](Cc1ccccc1)NC(=O)[C@H](NC(=O)OCc1ccccc1)C(C)C)CC(=O)O
unit-text: %
inhibition: 33
--
smiles-repr: CC(C)[C@H](NC(=O)OCc1ccccc1)C(=O)N[C@@H](Cc1ccccc1)C(=O)NCCNC(=O)[C@H](Cc1ccccc1)NC(=O)[C@H](NC(=O)OCc1ccccc1)C(C)C
unit-text: %
inhibition: 25
--
smiles-repr: CC(C)[C@H](NC(=O)OCc1ccccc1)C(=O)N[C@@H](Cc1ccccc1)C(=O)N(C)CCN(C)C(=O)[C@H](Cc1ccccc1)NC(=O)[C@H](NC(=O)OCc1ccccc1)C(C)C
unit-text: %
inhibition: 16

Pending compound:
### Prompt Would you mind telling me what inhibition value was observed for CC(C)[C@H](NC(=O)OCc1ccccc1)C(=O)N[C@@H](Cc1ccccc1)CN(CCO)CCN(CCO)C[C@H](Cc1ccccc1)NC(=O)[C@H](NC(=O)OCc1ccccc1)C(C)C ?
### Response 9

* * *

target-or-test-system: Human immunodeficiency virus type 1 protease (Human immunodeficiency virus 1)
test-method-notes: Inhibitory concentration against HIV-1 protease
assay-metric: IC50

### Prompt Look up IC50 with Human immunodeficiency virus type 1 protease (Human immunodeficiency virus 1) for this compound: CC(C)[C@H](NC(=O)OCc1ccccc1)C(=O)N[C@@H](Cc1ccccc1)[C@@H](O)[C@H](O)[C@H](Cc1ccccc1)NC(=O)[C@H](NC(=O)OCc1ccccc1)C(C)C
### Response < 1 nM
